Ref: patent US20180044434A1

Catalogue of OD 490/630 nm values
molecular target: T1, Ala mutant of TA0096, SEQ ID NO: 41; assay: ELISA, coated peptide
T1 peptide: EENMDDQWMQDEMEAGY
Enter the number alone.

Field: example entries. Status: answers known.
- BINDER: "E9 (antibody, V domains shown, Chicken variable regions in a mouse chimeric antibody (IgG1); also called anti-PAD4 antibody E9) VH: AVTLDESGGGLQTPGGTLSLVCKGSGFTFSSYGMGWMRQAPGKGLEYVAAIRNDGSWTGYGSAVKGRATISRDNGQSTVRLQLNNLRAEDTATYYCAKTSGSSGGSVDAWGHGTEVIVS VL: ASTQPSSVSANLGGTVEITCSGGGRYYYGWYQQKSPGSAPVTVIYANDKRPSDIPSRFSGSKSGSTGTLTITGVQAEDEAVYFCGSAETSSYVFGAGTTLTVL"
  METRIC NAME: "OD 490/630 nm"
  READING: 1.8
- BINDER: "G6 (antibody, V domains shown, Chicken variable regions in a mouse chimeric antibody (IgG1); also called anti-PAD4 antibody G6) VH: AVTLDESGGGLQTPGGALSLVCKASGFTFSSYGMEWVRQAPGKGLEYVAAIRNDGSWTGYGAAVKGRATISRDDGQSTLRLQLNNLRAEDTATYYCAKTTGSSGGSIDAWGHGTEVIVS VL: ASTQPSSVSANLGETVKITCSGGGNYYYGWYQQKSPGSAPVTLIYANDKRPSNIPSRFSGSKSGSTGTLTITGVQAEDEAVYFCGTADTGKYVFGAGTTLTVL"
  METRIC NAME: "OD 490/630 nm"
  READING: 1.87
- BINDER: "H7 (antibody, V domains shown, Chicken variable regions in a mouse chimeric antibody (IgG1); also called anti-PAD4 antibody H7) VH: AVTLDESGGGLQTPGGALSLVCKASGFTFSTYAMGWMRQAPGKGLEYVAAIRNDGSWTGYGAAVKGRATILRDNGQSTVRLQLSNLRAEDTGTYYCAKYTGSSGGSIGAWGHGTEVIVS VL: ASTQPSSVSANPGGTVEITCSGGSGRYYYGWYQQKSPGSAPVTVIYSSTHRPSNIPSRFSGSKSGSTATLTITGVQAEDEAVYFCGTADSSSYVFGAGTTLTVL"
  METRIC NAME: "OD 490/630 nm"
  READING: 1.83
- BINDER: "A11 (antibody, V domains shown, Chicken variable regions in a mouse chimeric antibody (IgG1); also called anti-PAD4 antibody A11) VH: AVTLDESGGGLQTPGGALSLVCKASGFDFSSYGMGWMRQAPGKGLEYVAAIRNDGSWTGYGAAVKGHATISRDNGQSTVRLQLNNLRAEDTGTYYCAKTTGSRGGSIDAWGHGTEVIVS VL: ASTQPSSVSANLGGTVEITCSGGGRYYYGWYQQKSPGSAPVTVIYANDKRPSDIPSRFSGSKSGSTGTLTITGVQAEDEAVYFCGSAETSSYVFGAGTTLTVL"
  METRIC NAME: "OD 490/630 nm"
  READING: 1.85

INPUT: # query: OD 490/630 nm of entry G9 (antibody, V domains shown, Chicken variable regions in a mouse chimeric antibody (IgG1); also called anti-PAD4 antibody G9) VH: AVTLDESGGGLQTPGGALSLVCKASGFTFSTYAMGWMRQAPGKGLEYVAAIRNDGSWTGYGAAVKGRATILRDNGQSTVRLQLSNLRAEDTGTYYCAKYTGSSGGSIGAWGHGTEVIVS VL: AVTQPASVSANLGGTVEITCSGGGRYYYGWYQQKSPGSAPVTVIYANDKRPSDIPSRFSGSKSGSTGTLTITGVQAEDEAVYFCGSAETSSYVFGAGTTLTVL
OUTPUT: 1.89

INPUT: Then G8 (antibody, V domains shown, Chicken variable regions in a mouse chimeric antibody (IgG1); also called anti-PAD4 antibody G8) VH: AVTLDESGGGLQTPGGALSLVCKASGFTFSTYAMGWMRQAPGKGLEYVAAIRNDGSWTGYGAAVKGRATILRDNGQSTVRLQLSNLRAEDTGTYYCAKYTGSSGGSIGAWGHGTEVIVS VL: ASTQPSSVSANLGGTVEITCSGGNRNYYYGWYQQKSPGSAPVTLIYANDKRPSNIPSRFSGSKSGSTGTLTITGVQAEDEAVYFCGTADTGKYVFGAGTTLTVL ?
OUTPUT: 1.85
